B1: Tudor domain-containing protein 3, residues 554 to 611; numbered along this chain, Q9H7E2 (parent)
chain: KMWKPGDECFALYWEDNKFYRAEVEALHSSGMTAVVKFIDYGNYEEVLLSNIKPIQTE

# Variants of: B1
# method: abundance fitness (aPCA) (normalised: wild type 0, dead -1); higher = more abundant; growth selection in yeast, the domain comes from the species named
# test_conditions: Homo sapiens
Catalogue of variants with associated abundance fitness
reported_metric: abundance fitness

1. E45I ... -0.975
2. H28A ... 0.024
3. V36F ... -0.964
4. A34N ... -0.781
5. A26F ... 0.101
6. D16L ... -0.588
7. L27R ... -0.872
8. S50L ... -0.523
9. V35Q ... 0.058
10. F19I ... -0.649
11. S50F ... -0.605
